# Tested on: Runt-related transcription factor 1 (Homo sapiens) + Core-binding factor subunit beta (Homo sapiens) (UniProt Q01196+Q13951)
# Sequence (Q01196 whole entry, looked up): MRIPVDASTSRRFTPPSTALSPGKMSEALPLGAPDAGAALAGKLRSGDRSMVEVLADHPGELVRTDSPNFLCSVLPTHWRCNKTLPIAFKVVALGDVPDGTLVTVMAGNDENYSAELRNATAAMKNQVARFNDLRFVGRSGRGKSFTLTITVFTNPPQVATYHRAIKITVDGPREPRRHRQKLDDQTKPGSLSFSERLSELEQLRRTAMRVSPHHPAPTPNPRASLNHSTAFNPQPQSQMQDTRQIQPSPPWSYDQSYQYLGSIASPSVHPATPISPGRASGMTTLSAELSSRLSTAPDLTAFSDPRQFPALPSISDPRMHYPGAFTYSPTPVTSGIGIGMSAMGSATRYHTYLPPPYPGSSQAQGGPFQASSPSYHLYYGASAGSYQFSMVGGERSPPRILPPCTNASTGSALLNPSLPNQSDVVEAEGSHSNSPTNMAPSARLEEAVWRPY
# Sequence (Q13951 whole entry, looked up): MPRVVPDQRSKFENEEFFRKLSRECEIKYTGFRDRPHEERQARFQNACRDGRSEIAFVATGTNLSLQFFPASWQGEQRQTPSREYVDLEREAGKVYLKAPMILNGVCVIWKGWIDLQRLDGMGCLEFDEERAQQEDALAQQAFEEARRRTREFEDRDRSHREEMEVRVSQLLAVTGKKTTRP
# Protocol text: qHTS Assay for Compounds Blocking the Interaction Between CBF-beta and RUNX1 for the Treatment of Acute Myeloid Leukemia: Hit Validation; note: nearly all actives have a fitted effect of over 60% in size
# Test settings: AlphaScreen CBFb-His/RUNX1-biotin binding; series mostly up to 59.8 µM
Screen size: about 1,500 compounds; about 100 (6.7%) were called active. Inconclusive results (about 7%) are left out. Calls come from the whole dose curve; as a rule, active = well fitted inhibition curve with a large enough effect; inconclusive = small, poorly fitted or top-dose-only effect, or effect the other way; inactive = flat fitted curve, though single readings scatter. This is one part of a sample in which actives are shown more often than they occur.
Outcomes you can answer with include only these: active, inactive

Illustrative cases are given below, each with its answer.
{"Compound": "NC(Cc1cc(O)c(O)cc1O)C(=O)O (stereo not given)", "Category label": "active"}
{"Compound": "CC(C)OP(=O)(Oc1ccc(C(O)C(Cl)(Cl)Cl)cc1)OC(C)C (stereo not given)", "Category label": "inactive"}
{"Compound": "CC(=O)CC(c1ccccc1[N+](=O)[O-])c1c(O)c2ccccc2oc1=O (stereo not given)", "Category label": "inactive"}
{"Compound": "CCOC(=O)C(O)(c1ccc(NC(=O)c2ccc(Cl)c(Cl)c2)cc1)C(F)(F)F (stereo not given)", "Category label": "inactive"}
{"Compound": "CCN1CCc2ccccc2C1", "Category label": "inactive"}
{"Compound": "CC[n+]1c(-c2ccccc2)c2cc(N)ccc2c2ccc(N)cc21", "Category label": "active"}

# input # outcome recorded in this test, key = Cc1cc(OC(=O)N(C)C)nc2c1c(C)nn2C
# output inactive

# input Dear colleague, could you share the recorded outcome for COCc1cc(OC(=O)N(C)C)nc(-c2ccc(C)c(Cl)c2)n1 when you have a moment?
# output inactive

---

# Tested on: Runt-related transcription factor 1 (Homo sapiens) + Core-binding factor subunit beta (Homo sapiens) (UniProt Q01196+Q13951)
# Protocol text: qHTS Assay for Compounds Blocking the Interaction Between CBF-beta and RUNX1 for the Treatment of Acute Myeloid Leukemia: Hit Validation; note: nearly all actives have a fitted effect of over 60% in size; note: potency is the fitted concentration of half-maximal effect
# Test settings: AlphaScreen CBFb-His/RUNX1-biotin binding; series mostly up to 59.8 µM
The campaign covered roughly 1,500 compounds. About 100 (6.7%) were called active. Another 7% or so got no clear call; they are omitted. Many of the other results were omitted from the sample, so actives are more common in it than they were.
Value kind: Potency

Example entries begin here.
{"Compound": "CC[N+](C)(CC)CCC[n+]1c(-c2ccccc2)c2cc(N)ccc2c2ccc(N)cc21", "Potency": "1.12 µM (active)"}
{"Compound": "O=c1c2ccccc2nc(Cc2cccc([N+](=O)[O-])c2)n1-c1ccc(O)cc1", "Potency": "inactive"}
{"Compound": "O=C(O)CCCCC1SCC2NC(=O)NC21 (configuration not stated)", "Potency": "0.0562 µM (active)"}
{"Compound": "CCCCCCn1c(O)c(C=Nc2ccccc2N2CCOCC2)c(=O)[nH]c1=S", "Potency": "inactive"}
{"Compound": "O=C1/C(=C\\c2cccnc2)N2CCC1CC2", "Potency": "inactive"}
{"Compound": "CCN1CCN(c2nc([N+](=O)[O-])nn2C)CC1", "Potency": "inactive"}
{"Compound": "O=c1[nH]c(=S)[nH]c(O)c1N=Nc1cccc(S(=O)(=O)N2CCOCC2)c1", "Potency": "inactive"}
{"Compound": "CNC(=O)Oc1ccc(N(C)C)cc1C(C)C", "Potency": "inactive"}
{"Compound": "COc1ccc(CN2C(=O)NC(=O)/C(=C/c3ccc(OC)c(OC)c3OC)C2=O)cc1", "Potency": "inactive"}
{"Compound": "CCn1nc(-c2ccccc2)nc2c(=O)n(C)c(=O)nc1-2", "Potency": "1.12 µM (active)"}

# input State the recorded Potency for this entry: CN1CCN(c2nc(N)cc(=O)[nH]2)CC1
# output inactive

# input Which measured Potency value corresponds to CN(N=O)c1ccc(O)c(O)c1 ?
# output 1.26 µM (active)

# input Consider the compound Cc1cccc(N2C(=O)NC(=O)/C(=C\c3ccc(N4CCOCC4)cc3)C2=O)c1 and give its measured Potency.
# output inactive

# input Requested field: Potency. Item: Cn1c(O)c(C(=Nc2ccc(F)cc2)c2ccccc2)c(=O)n(C)c1=O
# output inactive

# input Endpoint output: Potency of COP(=O)(Cc1ccc(C#N)o1)OC . Value?
# output inactive

# input Quick one: Potency of Cn1c(O)c(/C=N/N2CCOCC2)c(=O)[nH]c1=S ?
# output inactive

# input Fill blank: measured Potency of the compound CNC(=O)O/N=C(\C)Cc1nnn(-c2cc(C)on2)n1 is ____.
# output inactive

# input Report Potency for Cc1cccc(-n2c(O)c(/C=N/Nc3nc4c(c(=O)n(C)c(=O)n4C)n3C)c(=O)[nH]c2=S)c1 please.
# output 0.891 µM (active)

# input Fill in the blank: the reported Potency of N=Cc1c(O)n(-c2ccccc2)c(=O)n(-c2ccccc2)c1=O is ____.
# output inactive

# input I would be grateful if you could share the reported Potency for CCOP(=O)(Cc1cc(C(C)=O)c(C)o1)OCC .
# output inactive

# input # Potency lookup, item O=c1[nH]c(=S)n(-c2ccc(F)cc2)c(O)c1/C=N/N1CCOCC1
# output inactive

# input Entry Cc1onc(-c2c(Cl)cccc2Cl)c1C(=O)Nc1ccc2c(C(F)(F)F)cc(=O)oc2c1 has what Potency?
# output inactive
